system: pERK in NCI-H358 cells; assay: Cell-based pERK HTRF assay (pERK inhibition in H358 cells); conditions: pERK inhibition IC50, NCI-H358 cells, 30 min incubation; read-out: PERK in H358 cell
pIC50: −log10 of the molar value.
Listed here are compounds together with their documented pIC50.

Guide cases for pIC50, answers given:
[
  {
    "COMPOUND": "C=CC(=O)N1CCC[C@@H](N(C)c2nc(OC[C@@]34CCCN3C[C@H](F)C4)nc3c(F)c(-c4ccc(F)c5sc(N)nc45)c(C(F)(F)F)cc23)C1 [Compound 244]",
    "REPORTED_MEASUREMENT": "> 7.00"
  },
  {
    "COMPOUND": "C=CC(=O)N1CC[C@@H](N(C)c2nc(OC[C@@H]3CC(F)(F)CN3C)nc3c(F)c(-c4ccc(F)c5sc(N)nc45)c(C(F)(F)F)cc23)C1 (atropisomer, axis not shown) [Compound 228]",
    "REPORTED_MEASUREMENT": "> 7.00"
  }
]

[in] Suppose we examine the compound C=CC(=O)N1CC[C@@H](N(C)c2nc(OC[C@@]34CCCN3C[C@H](F)C4)nc3c(F)c(-c4ccc(F)c5sc(N)nc45)c(C(F)(F)F)cc23)C1 (single isomer, unassigned) ; what pIC50 value has been reported?
[out] 6.00 to 7.00

[in] Suppose we examine the compound C=CC(=O)N1CC[C@@H](N(C)c2nc(OCC34CCCN3CCC4)nc3c(F)c(-c4ccc(F)c5sc(N)nc45)c(C(F)(F)F)cc23)C1 (atropisomer, axis not shown) [Compound 221] ; what pIC50 value has been reported?
[out] < 6.00

Data provenance is patent US12528818B2.
